Experiment: Pharmacokinetic assay in Wistar rats, oral
Conditions: rat, in vivo, 30 mg/kg
Form field: AUC(0-t) (one value per entry).
Report the value in ng·h/mL with no unit label.

[2H]C([2H])([2H])OC1CCN(CC(c2cnc(NC(=O)C(NC(=O)c3ccnn3C([2H])([2H])C([2H])([2H])[2H])C3CCC(C)CC3)s2)N2CC(F)(F)CCC2=O)CC1F (stereo not drawn)	24600
[2H]C([2H])([2H])C([2H])([2H])n1nccc1C(=O)N[C@H](C(=O)Nc1ncc([C@@H](CN2CCO[C@@H](C)C2)N2CC(F)(F)CCC2=O)s1)[C@H]1CC[C@H](C)CC1	20900

Now look at this one.
QUERY: Fill in the blank: the reported AUC(0-t) of `[2H]C([2H])([2H])C([2H])([2H])n1nccc1C(=O)N[C@H](C(=O)Nc1ncc([C@@H](CN2CCC(C(F)F)CC2)N2CC(F)(F)CCC2=O)s1)[C@H]1CC[C@H](C)CC1` is ____.
RESULT: 12500
